ASSAYED TARGET: T1, CRBN, Q96SW2;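 further: pooled lentiviral library of zinc finger degron-EGFP fusions in mCherry-positive Jurkat cells, FACS-sorted after compound exposure, with degron abundance counted by next-generation sequencing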
T1 chain: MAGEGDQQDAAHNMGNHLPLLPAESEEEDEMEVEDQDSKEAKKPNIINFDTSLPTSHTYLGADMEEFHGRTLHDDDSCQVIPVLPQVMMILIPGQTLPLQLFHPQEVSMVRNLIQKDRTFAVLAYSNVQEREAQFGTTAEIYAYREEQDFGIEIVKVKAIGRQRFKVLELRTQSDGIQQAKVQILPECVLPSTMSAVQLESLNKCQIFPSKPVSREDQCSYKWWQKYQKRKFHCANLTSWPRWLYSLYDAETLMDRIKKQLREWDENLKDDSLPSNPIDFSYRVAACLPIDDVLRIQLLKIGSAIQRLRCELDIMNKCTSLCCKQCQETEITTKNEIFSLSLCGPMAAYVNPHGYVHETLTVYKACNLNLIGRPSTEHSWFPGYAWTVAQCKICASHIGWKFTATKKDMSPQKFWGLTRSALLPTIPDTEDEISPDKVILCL
ASSAY INFO: log2 fold change of degron read counts, EGFP-low vs EGFP+ sorted cells (limma voom), compound-induced degradation; higher = more compound-induced degradation of the degron-EGFP fusion; degrons are variants of IKZF1/3 zinc finger 2; compound dose not given here
CONDITION DETAILS: Jurkat; 18 h; compound: thalidomide
Whole data set: some 8,300 sequences, median “log2 fold change of degron read counts, EGFP-low vs EGFP+ sorted cells (limma voom), compound-induced degradation” near -1.1, cut for the highest 2% near 3.2. This excerpt belongs to a sample that is enriched for the highest values.
Given measured log2 fold change of degron read counts, output 1 if it is greater than or equal to 2 and -1 if not.

Prompt line: Please check the record FKCEICGAEFTQKGNLLRHIKL [46F_47K_49E_50I_52G_53A_54E_55F_67L_, Q9UKT9] and state if its log2 fold change of degron read counts is at or above 2.
Response line: -1

Prompt line: Threshold query (log2 fold change of degron read counts >= 2) on LVCPICGFACTQKGNLLRHIKL [46L_47V_49P_50I_52G_53F_54A_55C_67L_, Q9UKT9]
Response line: 1

Prompt line: log2 fold change of degron read counts >= 2 for FCCPQCGAHFTQKGNLLRHIKL [46F_47C_49P_50Q_52G_53A_54H_55F_67L_, Q9UKT9] ?
Response line: -1

Prompt line: Hello, I need to know if LTCPICGFACTQKGNLLRHIKL [46L_47T_49P_50I_52G_53F_54A_55C_67L_, Q9UKT9] has measured log2 fold change of degron read counts not below 2. Thanks!
Response line: 1

Prompt line: Hi team, for FLCPICGRFFTQKGNLLRHIKL [46F_47L_49P_50I_52G_53R_54F_55F_67L_, Q9UKT9] , is the recorded log2 fold change of degron read counts at or above 2?
Response line: -1

Prompt line: Say whether FTCNVCGALFTQKGNLLRHIKL [46F_47T_49N_50V_52G_53A_54L_55F_67L_, Q9UKT9] shows log2 fold change of degron read counts of 2 or more.
Response line: -1

Prompt line: Determine whether measured log2 fold change of degron read counts meets or exceeds 2 for FACEICGACFTQKGNLLRHIKL [46F_47A_49E_50I_52G_53A_54C_55F_67L_, Q9UKT9]
Response line: -1

Prompt line: Reported log2 fold change of degron read counts reaches at least 2 for LCCNQCGFWCTQKGNLLRHIKL [46L_47C_49N_50Q_52G_53F_54W_55C_67L_, Q9UKT9] ?
Response line: -1

Prompt line: Could you please find out whether FECEQCGADFTQKGNLLRHIKL [46F_47E_49E_50Q_52G_53A_54D_55F_67L_, Q9UKT9] has log2 fold change of degron read counts that meets 2 or exceeds it?
Response line: -1

Prompt line: Hi, just wondering whether LCCPICGFACTQKGNLLRHIKL [46L_47C_49P_50I_52G_53F_54A_55C_67L_, Q9UKT9] shows log2 fold change of degron read counts of 2 or higher.
Response line: 1

Prompt line: // inclusive: log2 fold change of degron read counts at least 2? input: FDCEICGRTFTQKGNLLRHIKL [46F_47D_49E_50I_52G_53R_54T_55F_67L_, Q9UKT9]
Response line: -1

Prompt line: Could you tell me if the measured log2 fold change of degron read counts of FSCEQCGAHFTQKGNLLRHIKL [46F_47S_49E_50Q_52G_53A_54H_55F_67L_, Q9UKT9] reaches 2 or more?
Response line: -1

Prompt line: Kindly determine if log2 fold change of degron read counts recorded for LKCPICGFACTQKGNLLRHIKL [46L_47K_49P_50I_52G_53F_54A_55C_67L_, Q9UKT9] is above or exactly 2.
Response line: -1

Prompt line: Has LNCPICGFACTQKGNLLRHIKL [46L_47N_49P_50I_52G_53F_54A_55C_67L_, Q9UKT9] a recorded log2 fold change of degron read counts greater than or equal to 2?
Response line: -1

Prompt line: Reported log2 fold change of degron read counts reaches at least 2 for FHCEICGACFTQKGNLLRHIKL [46F_47H_49E_50I_52G_53A_54C_55F_67L_, Q9UKT9] ?
Response line: -1

Prompt line: Has FWCEICGRHFTQKGNLLRHIKL [46F_47W_49E_50I_52G_53R_54H_55F_67L_, Q9UKT9] a recorded log2 fold change of degron read counts greater than or equal to 2?
Response line: -1

Prompt line: Is it the case that LYCPICGFACTQKGNLLRHIKL [46L_47Y_49P_50I_52G_53F_54A_55C_67L_, Q9UKT9] has log2 fold change of degron read counts reaching or exceeding 2?
Response line: -1

Prompt line: Does the sequence LECPICGFACTQKGNLLRHIKL [46L_47E_49P_50I_52G_53F_54A_55C_67L_, Q9UKT9] have recorded log2 fold change of degron read counts that is 2 or more?
Response line: 1

Prompt line: Is it the case that LDCNQCGFCCTQKGNLLRHIKL [46L_47D_49N_50Q_52G_53F_54C_55C_67L_, Q9UKT9] has log2 fold change of degron read counts reaching or exceeding 2?
Response line: -1

Prompt line: Is reported log2 fold change of degron read counts greater than or equal to 2 here: FNCEICGACFTQKGNLLRHIKL [46F_47N_49E_50I_52G_53A_54C_55F_67L_, Q9UKT9]
Response line: -1

Prompt line: # check: log2 fold change of degron read counts of LACEICGFMCTQKGNLLRHIKL [46L_47A_49E_50I_52G_53F_54M_55C_67L_, Q9UKT9] is greater than or equal to 2
Response line: -1

Prompt line: Decide: log2 fold change of degron read counts of LWCPICGFICTQKGNLLRHIKL [46L_47W_49P_50I_52G_53F_54I_55C_67L_, Q9UKT9] >= 2?
Response line: -1

Prompt line: Form field: log2 fold change of degron read counts at least 2? Entry: LACPICGFACTQKGNLLRHIKL [46L_47A_49P_50I_52G_53F_54A_55C_67L_, Q9UKT9]
Response line: 1

Prompt line: Exam item: decide whether the reported log2 fold change of degron read counts for FLCEICGACFTQKGNLLRHIKL [46F_47L_49E_50I_52G_53A_54C_55F_67L_, Q9UKT9] is at least 2.
Response line: -1

Prompt line: I'd appreciate it if you could say whether LYCEICGFWCTQKGNLLRHIKL [46L_47Y_49E_50I_52G_53F_54W_55C_67L_, Q9UKT9] has log2 fold change of degron read counts at least equal to 2.
Response line: -1

Prompt line: Threshold query (log2 fold change of degron read counts >= 2) on LRCPICGFACTQKGNLLRHIKL [46L_47R_49P_50I_52G_53F_54A_55C_67L_, Q9UKT9]
Response line: 1

Prompt line: // inclusive: log2 fold change of degron read counts at least 2? input: LDCPICGFACTQKGNLLRHIKL [46L_47D_49P_50I_52G_53F_54A_55C_67L_, Q9UKT9]
Response line: -1

Prompt line: Would you say FYCEQCGATFTQKGNLLRHIKL [46F_47Y_49E_50Q_52G_53A_54T_55F_67L_, Q9UKT9] shows log2 fold change of degron read counts at minimum 2?
Response line: -1

Prompt line: Check this sequence for log2 fold change of degron read counts at or above 2: LLCEICGFFCTQKGNLLRHIKL [46L_47L_49E_50I_52G_53F_54F_55C_67L_, Q9UKT9]
Response line: -1

The measurements presented in this section are drawn from the supplement of paper PMC12645437.
